system tested: T1, β-catenin (UniProt P35222 1-781)
T1 sequence (looked up): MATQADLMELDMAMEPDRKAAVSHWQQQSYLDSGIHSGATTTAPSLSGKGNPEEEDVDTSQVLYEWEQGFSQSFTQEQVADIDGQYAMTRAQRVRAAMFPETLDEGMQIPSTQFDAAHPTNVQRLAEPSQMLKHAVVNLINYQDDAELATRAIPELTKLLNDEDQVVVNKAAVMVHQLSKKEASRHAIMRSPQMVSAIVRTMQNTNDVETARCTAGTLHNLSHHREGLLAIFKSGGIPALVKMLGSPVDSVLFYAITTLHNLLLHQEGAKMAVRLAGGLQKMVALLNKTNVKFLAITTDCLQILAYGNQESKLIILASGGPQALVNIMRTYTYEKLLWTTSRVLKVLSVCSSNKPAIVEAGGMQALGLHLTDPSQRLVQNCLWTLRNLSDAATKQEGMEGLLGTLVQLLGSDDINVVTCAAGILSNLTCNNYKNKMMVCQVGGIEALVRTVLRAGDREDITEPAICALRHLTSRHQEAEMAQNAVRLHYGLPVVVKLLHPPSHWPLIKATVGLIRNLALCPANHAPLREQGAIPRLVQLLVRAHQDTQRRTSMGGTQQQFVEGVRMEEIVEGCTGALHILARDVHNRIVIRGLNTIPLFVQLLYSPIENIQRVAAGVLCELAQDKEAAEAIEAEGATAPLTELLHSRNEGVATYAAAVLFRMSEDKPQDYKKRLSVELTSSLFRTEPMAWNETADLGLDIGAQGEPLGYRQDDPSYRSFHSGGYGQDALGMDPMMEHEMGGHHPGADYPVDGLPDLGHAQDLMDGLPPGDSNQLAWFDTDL
assay summary: fluorescence polarisation
Bridges are numbered along the chain shown (N, C = ends). Where no end group is shown, it is not given here. [ ]: non-standard residue; d: D form. dLys(N3) = [N-]=[N+]=NCCCC[C@@H](N)C(=O)O; Lys(N3) = [N-]=[N+]=NCCCC[C@H](N)C(=O)O; dPra = C#CC[C@@H](N)C(=O)O; Pra = C#CC[C@H](N)C(=O)O
readout: Ki (nM)

Below: 5 binders and their reported Ki.
LSQEQLEHR[Pra]RSL[dLys(N3)]TLRDIQRLLF (triazole 10-14; not fully specified (N-terminus, C-terminus)) [triazole-stapled BCL9 peptide 17 (reversed staple, D-Nle(εN3) at i+4)]
1170
LSQEQLEHR[Lys(N3)]RSL[dPra]TLRDIQRLLF (not fully specified (N-terminus, C-terminus)) [BCL9 peptide 4 (linear precursor of 12)]
4900
LSQEQLEHR[Lys(N3)]RSL[dPra]TLRDIQRLLF (triazole 10-14; not fully specified (N-terminus, C-terminus)) [triazole-stapled BCL9 peptide 12]
130
Ac-LSQEQLEHRERSLQTLRDIQRMLF-NH2 [BCL9 24-mer peptide 1]
600
LSQEQLEHR[Lys(N3)]RSL[Pra]TLRDIQRLLF (not fully specified (N-terminus, C-terminus)) [BCL9 peptide 3 (linear precursor of 11)]
1400

(I) LSQEQLEHR[Pra]RSL[Lys(N3)]TLRDIQRLLF (triazole 10-14; not fully specified (N-terminus, C-terminus)) [triazole-stapled BCL9 peptide 16 (reversed linker, L-Pra and L-Nle(εN3))]
(II) LSQEQLEHR[Lys(N3)]RSL[Pra]TLRDIQRLLF (triazole 10-14; not fully specified (N-terminus, C-terminus)) [triazole-stapled BCL9 peptide 11]
Compare reported Ki values for I and II . Which is lower? Which one? Tell me its label.
II
(II: 330 nM, I: 770 nM)

(P) LSQEQLEHR[dPra]RSL[Lys(N3)]TLRDIQRLLF (triazole 10-14; not fully specified (N-terminus, C-terminus)) [triazole-stapled BCL9 peptide 18 (reversed staple, D-Pra at position 360)]
(Q) Ac-LSQEQLEHRERSLQTLRDIQRLLF-NH2 [BCL9 24-mer peptide 2 (M372L)]
(R) LSQEQLEHR[Pra]RSL[dLys(N3)]TLRDIQRLLF (not fully specified (N-terminus, C-terminus)) [BCL9 peptide 9 (linear precursor of 17)]
Arrange these binders by their Ki, starting with the largest number. Reply with the labels, ordered as the question asks.
R, P, Q
(R: 11000 nM, P: 4300 nM, Q: 940 nM)
